- Assay overview: PAMPA (parallel artificial membrane permeability assay)
- Type: in vitro ADME
- Details: PAMPA; membrane permeation rate (Pe); 50 mM MOPSO buffer pH 6.5 with 5.0% glycocholic acid, 37° C., 18 hours; read-out: iPAMPA Pe
Starred links: 1 amine or outer side, 2 acyl side, 3 side chain; linkers in the order of their positions; H or OH if unused. Positions of bridges follow the written chain, without caps; N, C: chain ends. Non-standard residues stand in square brackets, D forms with d. Residues, ends and D or L forms follow the SMILES beside them. *: point of attachment. Phe(4-(CH2)5CO) = O=C([C@H](Cc1ccc(CCCCCC(=O)[*:3])cc1)N[*:1])[*:2]; NMeF = CN[C@@H](Cc1ccccc1)C(=O)O; NMeGABA = CN(CCCC(=O)[*:2])[*:1]; NMeI = CC[C@H](C)[C@H](NC)C(=O)O; NMeL = CN[C@@H](CC(C)C)C(=O)O; NMeV = CN[C@H](C(=O)O)C(C)C; NMeA = CN[C@@H](C)C(=O)O; Piperidide = C1CCN(*)CC1; dNMeA = CN[C@H](C)C(=O)O; Sar = CNCC(=O)O; tBu = CC(C)(C)*
Outcome measure: Papp at 18 hours, 50 µM (×10⁻⁶ cm/s)
Kindly provide the numeric value in ×10⁻⁶ cm/s only, without the unit symbol.

Before answering, review these 2 worked examples.
Compound: CC(C)C[C@@H]1NC(=O)[C@H](CC(C)C)N(C)C(=O)C[C@@H](C(=O)N2CCCCC2)NC(=O)[C@H](C)N(C)C(=O)[C@H](CC(C)C)N(C)C(=O)[C@H]([C@@H](C)O)NC(=O)[C@H](Cc2ccccc2)N(C)C1=O [DP-738] ([NMeL]L[NMeF]T[NMeL][NMeA]D-Piperidide; lactam N-7)
Papp at 18 hours, 50 µM (×10⁻⁶ cm/s): 22
//
Compound: CC[C@H](C)[C@@H]1NC(=O)[C@H](C)N(C)C(=O)[C@H](CC(C)C)NC(=O)[C@H]([C@@H](C)O)NC(=O)CNC(=O)[C@@H]2CCCN2C(=O)[C@H](COC(C)(C)C)NC(=O)[C@H](CC(C)C)N(C)C(=O)[C@H](Cc2ccccc2)NC(=O)CCCN(C)C(=O)C[C@@H](C(=O)N2CCCCC2)NC(=O)[C@H](Cc2ccccc2)N(C)C1=O [DP-107] ([NMeGABA]F[NMeL]S(tBu)PGTL[NMeA]I[NMeF]D-Piperidide; lactam N-12)
Papp at 18 hours, 50 µM (×10⁻⁶ cm/s): 23

Query block: Query (compound): CC(C)C[C@H]1C(=O)N(C)[C@@H](C(C)C)C(=O)N[C@@H]([C@@H](C)O)C(=O)N(C)CC(=O)N(C)[C@@H](C)C(=O)N(C)[C@@H](C)C(=O)N[C@@H](C(C)C)C(=O)N[C@H](C(=O)N2CCCCC2)CC(=O)N(C)[C@H](C)C(=O)N(C)[C@@H](C)C(=O)N[C@@H](C)C(=O)N(C)[C@@H](Cc2ccccc2)C(=O)N1C [DP-319] ([dNMeA][NMeA]A[NMeF][NMeL][NMeV]T[Sar][NMeA][NMeA]VD-Piperidide; lactam N-12) ; field requested: Papp at 18 hours, 50 µM
Result block: 1

Query block: So what does the record say about Papp at 18 hours, 50 µM for CC[C@H](C)[C@H]1C(=O)N[C@H](C(=O)N2CCCCC2)Cc2ccc(cc2)CCCCCC(=O)N[C@@H]([C@@H](C)O)C(=O)N(C)[C@@H](Cc2ccccc2)C(=O)N[C@@H](CC(C)C)C(=O)N2CCC[C@H]2C(=O)N[C@@H](C(C)C)C(=O)N[C@@H](Cc2ccccc2)C(=O)N(C)CC(=O)N[C@@H](CC(C)C)C(=O)N[C@@H](C)C(=O)N1C [DP-878] (T[NMeF]LPVF[Sar]LA[NMeI][Phe(4-(CH2)5CO)]-Piperidide; lactam N-11) ?
Result block: 23

Query block: Which Papp at 18 hours, 50 µM value is on record for CC(C)C[C@@H]1NC(=O)[C@H](Cc2ccccc2)N(C)C(=O)[C@H](CC(C)C)N(C)C(=O)[C@@H](C)N(C)C(=O)C[C@@H](C(=O)N2CCCCC2)NC(=O)[C@H](CC(C)C)N(C)C(=O)[C@H](Cc2ccccc2)N(C)C(=O)[C@H]([C@@H](C)O)NC(=O)[C@H](Cc2ccccc2)N(C)C1=O [DP-441] ([dNMeA][NMeL][NMeF]L[NMeF]T[NMeF][NMeL]D-Piperidide; lactam N-9) ?
Result block: 37
